Would you mind telling me the reported EC50 of each entry?
Biological target: UniProt P21554
Experiment: cAMP assay (LANCE TR-FRET) in CHO-K1 cells expressing hCB1
Conditions: CHO-K1 cells stably expressing hCB1; intracellular cAMP, NKH-477 prestimulated; activity on hCB1 represents inverse agonism
Experimental: The ability of compounds to act as agonists or inverse agonists at human CB2 and CB1 receptors (hCB2, hCB1, respectively) was determined by measuring changes in intracellular cAMP levels. […] Receptor mediated responses were determined by measuring changes in intracellular cAMP using LANCE cAMP detection kit (catalog #AD0264, PerkinElmer, Wellesley, Mass.) based on time-resolved fluorescence resonance energy transfer (TR-FRET). […]

Please review the following examples before continuing.
CCCNC(=O)Nc1ccc2c(c1)C1C3CCC(C3)C1C(c1ccc(C)cc1)N2 (stereo not drawn) [(7)] ... > 10 µM
O=C(Nc1ccc2c(c1)C1C3CCC(C3)C1C(c1ccccc1)N2)c1cocn1 (stereo not drawn) [(13)] ... > 10 µM

Batch: EC50 for all items listed.
1. CCCNC(=S)Nc1ccc2c(c1)C1C3CCC(C3)C1C(c1c(Cl)cccc1Cl)N2 (stereo not drawn) [(27)]
2. CC(C)S(=O)(=O)Nc1ccc2c(c1)C1C3CCC(C3)C1C(c1ccccc1)N2 (stereo not drawn) [(51)]
3. CC(=O)Nc1ccc(C2Nc3ccc(S(=O)(=O)N(C)C)cc3C3C4CCC(C4)C23)cc1 (stereo not drawn) [(32)]
4. NS(=O)(=O)c1ccc2c(c1)C1C3CCC(C3)C1C(c1ccccc1)N2 (stereo not drawn) [(39)]
5. CN(C)S(=O)(=O)c1ccc2c(c1)C1C3CCC(C3)C1C(c1ccccc1)N2 (stereo not drawn) [(11)]

[out]
> 10 µM
2.21 µM
> 10 µM
3.04 µM
> 10 µM

Batch: EC50 for all items listed.
1. COCCC(=O)Nc1ccc2c(c1)C1C3CCC(C3)C1C(c1ccc(C)cc1)N2 (stereo not drawn) [(15)]
2. CN(C)S(=O)(=O)c1ccc2c(c1)C1C3CCC(C3)C1C(c1cncnc1)N2 (stereo not drawn) [(30)]

[out]
2.36 µM
> 10 µM

* * *

Would you mind telling me the reported Emax of each entry?
target: human CB1 receptor (hCB1) (Homo sapiens); test: cAMP assay (LANCE TR-FRET) in CHO-K1 cells expressing hCB1; assay type: cell-based; conditions: CHO-K1, percent of range defined by CP55,940 (1 μM = 100%); activity on hCB1 represents inverse agonism; read-out: hCB1 % Max Range

Please review the following examples before continuing.
Cc1ccc(C2Nc3ccc(NC(=O)C4CC4)cc3C3C4CCC(C4)C23)cc1 (stereo not drawn) [(22)] ... 115%
COCCC(=O)Nc1ccc2c(c1)C1C3CCC(C3)C1C(c1ccccc1)N2 (stereo not drawn) [(12)] ... < 40%
CCCNC(=S)Nc1ccc2c(c1)C1C3CCC(C3)C1C(c1c(Cl)cccc1Cl)N2 (stereo not drawn) [(27)] ... < 40%
CCC1Nc2ccc(NC(=O)C3CC3)cc2C2C3CCC(C3)C12 (stereo not drawn) [(21)] ... < 40%
O=C(NCC1CC1)c1ccc2c(c1)C1C3CCC(C3)C1C(c1ccccc1)N2 (stereo not drawn) [Compound (2d)] ... < 40%
c1ccc(C2Nc3ccc(N4CCOCC4)cc3C3C4CCC(C4)C23)cc1 (stereo not drawn) [(17)] ... < 40%
O=C(Nc1ccc2c(c1)C1C3CCC(C3)C1C(c1ccccc1)N2)C1CC1 (stereo not drawn) [(19)] ... 53%
O=S(=O)(c1ccc2c(c1)C1C3CCC(C3)C1C(c1ccccc1)N2)N1CCOCC1 (stereo not drawn) [(34)] ... < 40%

Pending compound:
[in] Under human CB1 receptor (hCB1) (Homo sapiens): Emax value of CC(C)S(=O)(=O)Nc1ccc2c(c1)C1C3CCC(C3)C1C(c1ccccc1)N2 (stereo not drawn) [(51)] ?
[out] 100%

* * *

target: human CB2 receptor (hCB2) (Homo sapiens, UniProt P34972); assay: cAMP assay (LANCE TR-FRET) in CHO-K1 cells expressing hCB2; format: cell-based; conditions: CHO-K1; intrinsic activity: percent maximal activation compared to full activation by CP55,940 (1 μM = 100%); read-out: hCB2 % Max Range
Sequence (P34972 whole entry): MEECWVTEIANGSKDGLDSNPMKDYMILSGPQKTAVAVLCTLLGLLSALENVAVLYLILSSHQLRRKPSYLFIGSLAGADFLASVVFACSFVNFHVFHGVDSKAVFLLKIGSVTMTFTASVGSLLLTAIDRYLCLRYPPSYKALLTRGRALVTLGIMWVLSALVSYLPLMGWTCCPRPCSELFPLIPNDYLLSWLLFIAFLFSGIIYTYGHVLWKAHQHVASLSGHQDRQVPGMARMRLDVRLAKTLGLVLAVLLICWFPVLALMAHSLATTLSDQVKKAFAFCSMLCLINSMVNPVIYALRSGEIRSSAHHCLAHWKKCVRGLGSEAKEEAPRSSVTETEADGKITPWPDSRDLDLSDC
Would you mind telling me the reported Emax of each entry?
A bare number is not enough; add the unit after it.

Cc1nc(-c2ccc3c(c2)C2C4CCC(C4)C2C(c2ccnn2C)N3)cs1 (stereo not drawn) ... 70.2%
CCCNC(=O)Nc1ccc2c(c1)C1C3CCC(C3)C1C(c1ccccc1)N2 (stereo not drawn) ... 73%
O=S(=O)(c1ccc2c(c1)C1C3CCC(C3)C1C(c1ccccc1)N2)N1CCCC1 (stereo not drawn) ... 104%
O=S(=O)(c1ccc2c(c1)C1C3CCC(C3)C1C(c1nccs1)N2)N1CCOCC1 (stereo not drawn) ... 57.1%
CS(=O)(=O)N(c1ccc2c(c1)C1C3CCC(C3)C1C(c1ccccc1)N2)S(C)(=O)=O (stereo not drawn) ... 102%

Pending compound:
[in] Please give the measured Emax for this compound: Cc1ccc(C2Nc3ccc(NC(=O)C4CC4)cc3C3C4CCC(C4)C23)cc1 (stereo not drawn)
[out] 53%

* * *

Would you mind telling me the reported Emax of each entry?
molecular target: human CB1 receptor (hCB1) (Homo sapiens, UniProt P21554); test: cAMP assay (LANCE TR-FRET) in CHO-K1 cells expressing hCB1; assay type: cell-based; details: CHO-K1, percent of range defined by CP55,940 (1 μM = 100%); activity on hCB1 represents inverse agonism; read-out: hCB1 % Max Range
Sequence (P21554 whole entry): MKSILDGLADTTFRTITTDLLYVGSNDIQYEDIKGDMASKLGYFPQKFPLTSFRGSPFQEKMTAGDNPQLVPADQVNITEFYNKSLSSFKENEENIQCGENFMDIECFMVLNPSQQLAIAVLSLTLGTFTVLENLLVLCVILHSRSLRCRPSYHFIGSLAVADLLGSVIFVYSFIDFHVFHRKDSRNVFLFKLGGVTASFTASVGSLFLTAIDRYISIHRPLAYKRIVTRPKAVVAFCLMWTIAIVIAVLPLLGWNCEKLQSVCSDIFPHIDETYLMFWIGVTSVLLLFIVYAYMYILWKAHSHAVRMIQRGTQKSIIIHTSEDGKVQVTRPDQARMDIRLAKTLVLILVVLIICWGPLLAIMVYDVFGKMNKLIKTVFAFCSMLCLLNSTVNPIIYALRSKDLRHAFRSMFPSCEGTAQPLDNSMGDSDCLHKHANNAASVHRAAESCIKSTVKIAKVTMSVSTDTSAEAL

Please review the following examples before continuing.
CC(=O)NS(=O)(=O)c1ccc2c(c1)C1C3CCC(C3)C1C(c1ccnn1C)N2 (stereo not drawn) ... < 40%
CC(=O)Nc1ccc2c(c1)C1C3CCC(C3)C1C(c1ccccc1)N2 (stereo not drawn) ... 88%
CCCNC(=O)Nc1ccc2c(c1)C1C3CCC(C3)C1C(c1c(Cl)cccc1Cl)N2 (stereo not drawn) ... < 40%
COCCC(=O)Nc1ccc2c(c1)C1C3CCC(C3)C1C(c1ccc(C)cc1)N2 (stereo not drawn) ... 56%

Batch: Emax for all items listed.
1. O=C(Nc1ccc2c(c1)C1C3CCC(C3)C1C(c1c(Cl)cccc1Cl)N2)C1CC1 (stereo not drawn)
2. CCCNC(=O)Nc1ccc2c(c1)C1C3CCC(C3)C1C(c1ccccc1)N2 (stereo not drawn)
3. O=S(=O)(c1ccc2c(c1)C1C3CCC(C3)C1C(c1c(Cl)cccc1Cl)N2)N1CCCCC1 (stereo not drawn)
4. CS(=O)(=O)N(c1ccc2c(c1)C1C3CCC(C3)C1C(c1ccccc1)N2)S(C)(=O)=O (stereo not drawn)
5. CN(C1CCCCC1)S(=O)(=O)c1ccc2c(c1)C1C3CCC(C3)C1C(c1ccccc1)N2 (stereo not drawn)

[out]
1: < 40%; 2: 46%; 3: < 40%; 4: < 40%; 5: < 40%

* * *

biological target: human CB2 receptor (hCB2) (Homo sapiens, UniProt P34972); test: cAMP assay (LANCE TR-FRET) in CHO-K1 cells expressing hCB2; assay type: cell-based; conditions: CHO-K1; intrinsic activity: percent maximal activation compared to full activation by CP55,940 (1 μM = 100%); read-out: hCB2 % Max Range
Would you mind telling me the reported Emax of each entry?
Give bare numbers, in %.

Please review the following examples before continuing.
Cn1nccc1C1Nc2ccc(S(=O)(=O)N3CCCC3)cc2C2C3CCC(C3)C12 (stereo not drawn) [(42)] ... 100
O=C(Nc1ccc2c(c1)C1C3CCC(C3)C1C(c1ccccc1)N2)C1CC1 (stereo not drawn) [(19)] ... 49

Batch: Emax for all items listed.
1. Cc1ccc(C2Nc3ccc(S(=O)(=O)N4CCCCC4)cc3C3C4CCC(C4)C23)cc1 (stereo not drawn) [(10)]
2. O=S(=O)(c1ccc2c(c1)C1C3CCC(C3)C1C(c1c(Cl)cccc1Cl)N2)N1CCCCC1 (stereo not drawn) [(9)]
3. CN(C1CCCCC1)S(=O)(=O)c1ccc2c(c1)C1C3CCC(C3)C1C(c1ccccc1)N2 (stereo not drawn) [(38)]
4. c1ccc(C2Nc3ccc(N4CCOCC4)cc3C3C4CCC(C4)C23)cc1 (stereo not drawn) [(17)]
5. Cc1nc(-c2ccc3c(c2)C2C4CCC(C4)C2C(c2ccccc2)N3)cs1 (stereo not drawn) [(43)]
6. CN(C)S(=O)(=O)c1ccc2c(c1)C1C3CCC(C3)C1C(c1nccs1)N2 (stereo not drawn) [(31)]
7. CCCCC(=O)Nc1ccc2c(c1)C1C3CCC(C3)C1C(c1ccccc1)N2 (stereo not drawn) [Compound (4d)]

[out]
1. 98
2. 75
3. 79.5
4. 94
5. 64.6
6. 89.2
7. 92

Batch: Emax for all items listed.
1. CCCCc1nnc(-c2ccc3c(c2)C2C4CCC(C4)C2C(c2ccccc2)N3)o1 (stereo not drawn) [(45)]
2. COCCC(=O)Nc1ccc2c(c1)C1C3CCC(C3)C1C(c1ccccc1)N2 (stereo not drawn) [(12)]
3. CCCCC(=O)Nc1ccc2c(c1)C1C3CCC(C3)C1C(c1ccc(C)cc1)N2 (stereo not drawn) [(29)]
4. O=S(=O)(c1ccc2c(c1)C1C3CCC(C3)C1C(c1cncnc1)N2)N1CCOCC1 (stereo not drawn) [(35)]
5. O=C(NCC1CC1)c1ccc2c(c1)C1C3CCC(C3)C1C(c1ccccc1)N2 (stereo not drawn) [Compound (2d)]
6. O=S(=O)(c1ccc2c(c1)C1CC=CC1C(c1ccccc1)N2)N1CCCCC1 (stereo not drawn) [(48)]
7. CN(C)S(=O)(=O)c1ccc2c(c1)C1C3CCC(C3)C1C(c1cncnc1)N2 (stereo not drawn) [(30)]

[out]
1. 96.8
2. 82
3. 54.8
4. 66.6
5. 84
6. 82.3
7. 99.3

Batch: Emax for all items listed.
1. CC(=O)NS(=O)(=O)c1ccc2c(c1)C1C3CCC(C3)C1C(c1ccnn1C)N2 (stereo not drawn) [(47)]
2. NS(=O)(=O)c1ccc2c(c1)C1C3CCC(C3)C1C(c1ccccc1)N2 (stereo not drawn) [(39)]
3. O=C(NCc1ccccc1)c1ccc2c(c1)C1C3CCC(C3)C1C(c1ccccc1)N2 (stereo not drawn) [(28)]
4. Cc1ccc(C2Nc3ccc(NC(=O)CC4CCCO4)cc3C3C4CCC(C4)C23)cc1 (stereo not drawn) [(16)]
5. CC(=O)Nc1ccc(C2Nc3ccc(S(=O)(=O)N(C)C)cc3C3C4CCC(C4)C23)cc1 (stereo not drawn) [(32)]

[out]
[82.5, 83.3, 84.4, 52, 81.3]

Batch: Emax for all items listed.
1. CC(=O)Nc1ccc2c(c1)C1C3CCC(C3)C1C(c1ccccc1)N2 (stereo not drawn) [(23)]
2. CC(C)S(=O)(=O)N1c2ccc(S(=O)(=O)N(C)C)cc2C2C3CCC(C3)C2C1c1ccccc1 (stereo not drawn) [(50)]
3. CC(=O)NS(=O)(=O)c1ccc2c(c1)C1C3CCC(C3)C1C(c1ccccc1)N2 (stereo not drawn) [(46)]
4. O=S(=O)(c1ccc2c(c1)C1C3CCC(C3)C1C(c1ccccc1)N2)N1CCOCC1 (stereo not drawn) [(34)]
5. O=C(Nc1ccc2c(c1)C1C3CCC(C3)C1C(c1ccccc1)N2)c1cocn1 (stereo not drawn) [(13)]
6. CN(C)S(=O)(=O)c1ccc2c(c1)C1C3CCC(C3)C1C(c1ccccc1)N2 (stereo not drawn) [(11)]
7. Cn1nccc1C1Nc2ccc(S(=O)(=O)N3CCOCC3)cc2C2C3CCC(C3)C12 (stereo not drawn) [(37)]
8. CCC1Nc2ccc(NC(=O)C3CC3)cc2C2C3CCC(C3)C12 (stereo not drawn) [(21)]

[out]
1: 82; 2: 81.2; 3: 96.9; 4: 102; 5: 57; 6: 99; 7: 92.6; 8: 84
